Read-out: Interleukin 17F (IL17F), IL17F (gene 112744)
Assay Notes: BSK_BT_xIL17F: BioMAP Diversity Plus: BT Assay for Interleukin 17F (IL17F) Biomarker Activity (AID 2284243)
Assay Context: primary human B cells with PBMC
Calls of active or inactive are those of the source. The calls were made as follows: active = hit-call score of the fitted dose curve at least 0.9, where 1 is the maximum; inactive = score below 0.9.
Readout Kind: AC50

# Compound, Data Value
records = [
    ("Cc1cc(C(C)(C)c2ccc(O)c(C)c2)ccc1O", "inactive"),
    ("CCOC(=O)C(SP(=S)(OC)OC)c1ccccc1 (configuration not stated)", "inactive"),
    ("CCOC(=O)CC(=O)CCl", "12.4 µM (active)"),
    ("Oc1ccc(Cc2ccc(O)cc2)cc1", "inactive"),
    ("Cc1ccccc1OP(=O)(Oc1ccccc1)Oc1ccccc1", "inactive"),
    ("CCC(C)(C#N)N=NC(C)(C#N)CC (configuration not stated)", "inactive"),
    ("O=[N+]([O-])c1ccc(Nc2ccccc2)cc1", "inactive"),
    ("CC(C)N(C(=O)CCl)c1ccccc1", "8.76 µM (active)"),
    ("O=C(O)COc1cc(Cl)c(Cl)cc1Cl", "inactive"),
    ("c1ccc2sc(SNC3CCCCC3)nc2c1", "32.1 µM (active)"),
    ("Cc1ccc(OP(=O)(Oc2ccc(C)cc2C)Oc2ccc(C)cc2C)c(C)c1", "24.9 µM (active)"),
    ("C[C@]12CC[C@@H](O)C[C@@H]1CC[C@@H]1[C@@H]2CC[C@]2(C)C(=O)CC[C@@H]12", "inactive"),
    ("OC(Cc1ccccc1Cl)(Cn1cncn1)C1(Cl)CC1 (configuration not stated)", "inactive"),
    ("C=CC(Cl)CCl (configuration not stated)", "inactive"),
    ("CC(C)(COCC1CO1)COCC1CO1 (configuration not stated)", "24.5 µM (active)"),
    ("c1ccc(-c2cccc(-c3ccccc3)c2)cc1", "22.6 µM (active)"),
    ("N#CCCC(Br)(C#N)CBr (configuration not stated)", "9.32 µM (active)"),
    ("Cc1cccc(OP(=O)(Oc2cccc(C)c2)Oc2cccc(C)c2)c1", "inactive"),
    ("CCOP(=S)(OCC)OP(=S)(OCC)OCC", "inactive"),
    ("Cc1cc(Cl)ccc1N", "inactive"),
    ("Cc1c([N+](=O)[O-])c(C)c([N+](=O)[O-])c(C(C)(C)C)c1[N+](=O)[O-]", "28.1 µM (active)"),
    ("Nc1ccc(N)cc1", "inactive"),
    ("O=C(CCl)NCO", "inactive"),
    ("Cc1ccccc1OP(=O)(Oc1ccccc1C)Oc1ccccc1C", "27.3 µM (active)"),
    ("O=c1oc2ccccc2c(O)c1C(CC(O)c1ccc(-c2ccc(Br)cc2)cc1)c1ccccc1 (configuration not stated)", "inactive"),
    ("CCOP(=O)(OCC)OC(=CCl)c1ccc(Cl)cc1Cl", "inactive"),
    ("Oc1c(Br)cc(Br)cc1Br", "inactive"),
    ("CC(C)=CC1C(C(=O)OCc2cccc(Oc3ccccc3)c2)C1(C)C (configuration not stated)", "20 µM (active)"),
    ("CCN(CC)C(=O)C(Cl)=C(C)OP(=O)(OC)OC", "inactive"),
    ("Cc1ccc2nc3sc(=O)sc3nc2c1", "inactive"),
    ("C#CCOC(=O)/C=C(C)/C=C/CC(C)CCCC(C)C (configuration not stated)", "inactive"),
    ("CCOC(=O)CCN(SN(C)C(=O)Oc1cccc2c1OC(C)(C)C2)C(C)C", "30 µM (active)"),
]
